// provenance: patent US20230103791A1

Consider the following compounds and their measured IC50 readings.
target: human Nav1.8 (Homo sapiens); construct: expressed in transfected cells; host or cells: HEK293 (HEK293-Nav1.8); assay: Nav1.8 sodium channels assay, QPatch 48 HTX electrophysiology in HEK293-Nav1.8 cells; type: cell-based; details: at least one set of experimental runs; read-out: average pIC50 value against Nav1.8 (converted)

Known results for compounds:
[[record]]
compound = "Cc1cc(F)ccc1N1CN(c2ccc(=O)[nH]c2C)C(=O)c2ccc(C(F)(F)F)nc21 [Example 149]"
data_value = "126 to 631 nM"

[[record]]
compound = "Cc1cc(F)ccc1N1CN(c2ccc(=O)[nH]c2C)C(=O)c2cc(Cl)c(OC(F)F)cc21 [Example 167]"
data_value = "≤ 100 nM"

[[record]]
compound = "Cc1ccc2c(c1)C(=O)N(c1ccc(=O)[nH]c1C)CN2c1ccc(F)cc1C [Example 51]"
data_value = "≤ 100 nM"


I am curious: what IC50 value has been reported for Cc1cc(F)ccc1N1c2cc(C(F)(F)F)ccc2C(=O)N(c2ccc(=O)[nH]c2)C1C (centres unmarked) [Example 39] ?
794 to 7940 nM

Moving on to CNc1ccc2c(c1)N(c1ccc(F)cc1C)CN(c1ccc(=O)[nH]c1C)C2=O [Example 67]
126 to 631 nM

###

biological target: human Nav1.8 (Homo sapiens, UniProt Q9Y5Y9); construct: expressed in transfected cells; host or cells: HEK293 (HEK293-Nav1.8); experiment: Nav1.8 sodium channels assay, QPatch 48 HTX electrophysiology in HEK293-Nav1.8 cells; assay type: cell-based; settings: at least one set of experimental runs; read-out: average pIC50 value against Nav1.8 (converted)
Sequence (Q9Y5Y9 whole entry): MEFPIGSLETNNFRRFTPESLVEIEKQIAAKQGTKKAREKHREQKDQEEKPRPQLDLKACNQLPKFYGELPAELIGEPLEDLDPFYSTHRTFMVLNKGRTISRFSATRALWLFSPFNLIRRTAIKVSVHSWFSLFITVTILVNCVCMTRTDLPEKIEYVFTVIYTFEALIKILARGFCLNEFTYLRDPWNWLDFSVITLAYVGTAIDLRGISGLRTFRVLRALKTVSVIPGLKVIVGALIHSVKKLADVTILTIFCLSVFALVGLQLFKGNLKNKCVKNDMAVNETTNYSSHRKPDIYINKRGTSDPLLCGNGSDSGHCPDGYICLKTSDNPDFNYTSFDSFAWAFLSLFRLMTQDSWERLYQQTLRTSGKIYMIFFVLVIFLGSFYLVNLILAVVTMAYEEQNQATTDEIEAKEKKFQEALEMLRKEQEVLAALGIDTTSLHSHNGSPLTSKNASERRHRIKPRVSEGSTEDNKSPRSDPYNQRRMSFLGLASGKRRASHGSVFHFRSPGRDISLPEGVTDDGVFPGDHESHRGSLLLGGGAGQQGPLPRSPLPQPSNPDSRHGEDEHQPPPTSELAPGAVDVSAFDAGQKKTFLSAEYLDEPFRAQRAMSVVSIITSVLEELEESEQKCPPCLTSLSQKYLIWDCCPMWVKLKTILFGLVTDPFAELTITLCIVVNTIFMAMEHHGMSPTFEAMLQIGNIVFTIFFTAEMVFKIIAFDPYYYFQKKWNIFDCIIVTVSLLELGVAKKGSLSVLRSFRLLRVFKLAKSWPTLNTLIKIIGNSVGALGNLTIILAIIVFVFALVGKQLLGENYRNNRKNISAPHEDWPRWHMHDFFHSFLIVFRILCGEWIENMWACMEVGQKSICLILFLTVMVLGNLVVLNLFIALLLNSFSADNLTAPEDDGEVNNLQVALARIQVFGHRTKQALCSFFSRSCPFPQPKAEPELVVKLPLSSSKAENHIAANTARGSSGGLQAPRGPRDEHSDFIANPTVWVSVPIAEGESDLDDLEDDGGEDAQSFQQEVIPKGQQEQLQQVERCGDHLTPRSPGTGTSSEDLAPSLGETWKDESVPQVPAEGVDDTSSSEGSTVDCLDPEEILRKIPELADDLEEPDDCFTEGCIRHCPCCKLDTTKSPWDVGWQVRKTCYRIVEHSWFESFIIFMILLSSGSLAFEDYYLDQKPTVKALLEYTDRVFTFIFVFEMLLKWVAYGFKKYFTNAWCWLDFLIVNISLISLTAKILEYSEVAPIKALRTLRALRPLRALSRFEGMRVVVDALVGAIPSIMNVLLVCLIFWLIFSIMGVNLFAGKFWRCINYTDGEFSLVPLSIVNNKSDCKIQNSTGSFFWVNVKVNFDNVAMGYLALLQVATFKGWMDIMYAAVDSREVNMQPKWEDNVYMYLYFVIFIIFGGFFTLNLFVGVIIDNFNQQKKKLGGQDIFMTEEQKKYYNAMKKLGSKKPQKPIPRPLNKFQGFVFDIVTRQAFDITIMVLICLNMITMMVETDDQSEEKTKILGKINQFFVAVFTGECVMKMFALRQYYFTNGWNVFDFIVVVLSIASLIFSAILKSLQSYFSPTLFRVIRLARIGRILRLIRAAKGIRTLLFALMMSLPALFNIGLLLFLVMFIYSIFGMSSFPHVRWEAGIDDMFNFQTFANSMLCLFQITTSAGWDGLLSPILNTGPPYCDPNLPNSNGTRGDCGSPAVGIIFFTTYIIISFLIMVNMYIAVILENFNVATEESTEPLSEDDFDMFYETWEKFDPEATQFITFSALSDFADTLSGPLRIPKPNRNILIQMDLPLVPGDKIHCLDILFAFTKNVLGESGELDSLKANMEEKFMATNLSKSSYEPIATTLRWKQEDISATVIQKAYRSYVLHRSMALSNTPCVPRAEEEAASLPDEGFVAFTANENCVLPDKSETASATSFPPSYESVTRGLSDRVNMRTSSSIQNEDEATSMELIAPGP
Sequence (Q07699 19-218 partner): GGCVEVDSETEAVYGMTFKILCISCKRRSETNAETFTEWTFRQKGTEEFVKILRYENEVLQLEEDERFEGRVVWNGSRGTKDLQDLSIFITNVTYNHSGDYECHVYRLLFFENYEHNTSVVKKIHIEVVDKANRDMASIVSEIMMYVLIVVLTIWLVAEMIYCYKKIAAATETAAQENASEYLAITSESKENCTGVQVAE
Readout Label: IC50

Known results for compounds:
[[record]]
compound = "CCc1[nH]c(=O)ccc1N1CN(c2ccc(F)cc2C)c2ccc(C(F)(F)F)cc2C1=O [Example 64]"
data_value = "≤ 100 nM"

[[record]]
compound = "Cc1cc(F)ccc1N1CN(C2CNC(=O)NC2)C(=O)c2ccc(C(F)(F)F)cc21 [Example 270]"
data_value = "126 to 631 nM"

[[record]]
compound = "Cc1cc(F)ccc1N1CN(c2ccc(=O)[nH]c2)C(=O)c2ccc(C(F)(F)F)c(C)c21 [Example 45]"
data_value = "794 to 7940 nM"

[[record]]
compound = "Cc1cc(F)ccc1N1CN(c2ccc(=O)[nH]c2C)C(=O)c2c(C)cccc21 [Example 89]"
data_value = "≤ 100 nM"

[[record]]
compound = "Cc1cc(F)ccc1N1CN(c2ccc(=O)[nH]c2C)C(=O)c2cc(C#N)ccc21 [Example 75]"
data_value = "126 to 631 nM"

[[record]]
compound = "Cc1[nH]c(=O)ccc1N1CN(c2cc(F)cc(F)c2C)c2ccc(C(F)(F)F)cc2C1=O [Example 235]"
data_value = "794 to 7940 nM"

[[record]]
compound = "Cc1cc(OC(F)(F)F)ccc1N1CN(c2ccc(=O)[nH]c2)C(=O)c2cc(C(F)(F)F)cnc21 [Example 119]"
data_value = "126 to 631 nM"

[[record]]
compound = "Cc1cc(=O)[nH]c(C)c1N1CN(c2ccc(F)cc2C(C)C)c2ccc(Cl)cc2C1=O (single isomer, unassigned) [Example 291]"
data_value = "794 to 7940 nM"

[[record]]
compound = "COc1cc(F)ccc1N1CN(c2ccc(=O)[nH]c2)C(=O)c2ccc(C#N)cc21 [Example 229]"
data_value = "794 to 7940 nM"

[[record]]
compound = "COc1ccc(N2CN(c3ccc(=O)[nH]c3C)C(=O)c3cc(C(F)(F)F)ccc32)c(C)c1 [Example 126]"
data_value = "≤ 100 nM"


IC50 of Cc1cc(F)ccc1N1CN(c2ccc(=O)[nH]c2C)C(=O)c2cccc(Cl)c21 [Example 124] on human Nav1.8 (Homo sapiens, UniProt Q9Y5Y9)?
794 to 7940 nM

Moving on to CCc1cc(F)ccc1N1CN(c2ccc(=O)[nH]c2C)C(=O)c2cc(Cl)c(C#N)nc21 [Example 207]
≤ 100 nM

###

target: human Nav1.8 (Homo sapiens, UniProt Q9Y5Y9); construct: expressed in transfected cells; host or cells: HEK293 (HEK293-Nav1.8); assay: Nav1.8 sodium channels assay, QPatch 48 HTX electrophysiology in HEK293-Nav1.8 cells; format: cell-based; conditions: Table 1; HEK293-Nav1.8, QPatch 48 HTX, half inactivation state voltage protocol (V1/2); single run or average of two or more runs; read-out: Nav1.8 pIC50 (converted)
Readout Label: IC50 (nM)

Known results for molecules:
[[record]]
molecule = "Cc1cc(OC(F)(F)F)ccc1N1CN(c2ccc(=O)[nH]c2C)C(=O)c2cc(C(F)(F)F)cnc21 [drawing 274]"
data_value = 25.1

[[record]]
molecule = "Cc1cc(F)ccc1N1CN(c2ccc(=O)[nH]c2)C(=O)c2ccc(C#N)cc21 [drawing 279]"
data_value = 1580

[[record]]
molecule = "CCOc1ccc(N2CN(c3ccc(=O)[nH]c3C)C(=O)c3ccc(C(F)(F)F)cc32)cc1 [drawing 302]"
data_value = 398


1 = O=C1c2ccc(C(F)(F)F)cc2N(c2ccc(F)cc2)CN1c1ccc(=O)[nH]c1 [drawing 262]
2 = Cc1ccccc1N1CN(c2ccc(=O)[nH]c2C)C(=O)c2ccccc21 [drawing 295]
3 = Cc1cc(F)ccc1N1CN(c2ccc(=O)[nH]c2C)C(=O)c2cc(Cl)ccc21 [drawing 293]
4 = Cc1cc(C#N)ccc1N1CN(c2ccc(=O)[nH]c2C)C(=O)c2ccc(C(F)(F)F)cc21 [drawing 287]
Arrange the 4 molecules from largest to smallest IC50. Labels, requested order.
2, 1, 4, 3

###

molecular target: human Nav1.8 (Homo sapiens); construct: expressed in transfected cells; host or cells: HEK293 (HEK293-Nav1.8); experiment: Nav1.8 sodium channels assay, QPatch 48 HTX electrophysiology in HEK293-Nav1.8 cells; type: cell-based; conditions: at least one set of experimental runs; read-out: average pIC50 value against Nav1.8 (converted)
Consider the following molecules and their measured IC50 readings.

Known results for molecules:
[[record]]
record_smiles = "COc1cc(C)ccc1N1CN(c2ccc(=O)[nH]c2C)C(=O)c2cc(Cl)ccc21"
system_name = "human Nav1.8 (Homo sapiens)"
data_value = "126 to 631 nM"

[[record]]
record_smiles = "Cc1[nH]c(=O)ccc1N1CN([C@@H]2CCOC[C@H]2C)c2cc(C(F)(F)F)ccc2C1=O"
system_name = "human Nav1.8 (Homo sapiens)"
data_value = "794 to 7940 nM"

[[record]]
record_smiles = "Cc1cc(N2CN(c3ccc(F)cc3C)c3cc(C(F)(F)F)ccc3C2=O)cc(=O)[nH]1"
system_name = "human Nav1.8 (Homo sapiens)"
data_value = "794 to 7940 nM"


IC50 of Cc1[nH]c(=O)ccc1N1CN(c2ccc(F)cc2F)c2cc(C(F)(F)F)ccc2C1=O on human Nav1.8 (Homo sapiens)?
126 to 631 nM

###

target: human Nav1.8 (Homo sapiens, UniProt Q9Y5Y9); construct: expressed in transfected cells; host or cells: HEK293 (HEK293-Nav1.8); assay: Nav1.8 sodium channels assay, QPatch 48 HTX electrophysiology in HEK293-Nav1.8 cells; assay type: cell-based; conditions: at least one set of experimental runs; read-out: average pIC50 value against Nav1.8 (converted)
Consider the following molecules and their measured IC50 readings.

Known results for molecules:
[[record]]
molecule = "Cc1[nH]c(=O)ccc1N1CN(c2cccc(F)c2C)c2ccc(C(F)(F)F)cc2C1=O"
data_value = "≤ 100 nM"

[[record]]
molecule = "Cc1[nH]c(=O)ccc1N1CN(c2ccc(F)c(F)c2C)c2ncc(C(F)(F)F)cc2C1=O"
data_value = "≤ 100 nM"

[[record]]
molecule = "COc1nc2c(cc1F)C(=O)N(c1ccc(=O)[nH]c1C)CN2c1ccc(F)cc1C"
data_value = "126 to 631 nM"


I am curious: what IC50 value has been reported for Cc1[nH]c(=O)ccc1N1CN(c2ccc(F)cc2C(C)(C)C)c2ccc(Cl)cc2C1=O (single isomer, unassigned) [Example 294] ?
≤ 100 nM

Moving on to Cc1cc(F)ccc1N1CN(c2cccnc2)C(=O)c2ccc(C(F)(F)F)cc21
794 to 7940 nM

Moving on to Cc1[nH]c(=O)ccc1N1CN(c2ccc(F)cc2C(C)(C)C)c2cc(C(F)(F)F)ccc2C1=O (single isomer, unassigned) [Example 296]
≤ 100 nM

Moving on to Cc1cc(F)ccc1N1CN(c2ccc(=O)[nH]c2C)C(=O)c2c(Cl)cccc21
126 to 631 nM

###

target: human Nav1.8 (Homo sapiens); construct: expressed in transfected cells; host or cells: HEK293 (HEK293-Nav1.8); experiment: Nav1.8 sodium channels assay, QPatch 48 HTX electrophysiology in HEK293-Nav1.8 cells; type: cell-based; conditions: at least one set of experimental runs; read-out: average pIC50 value against Nav1.8 (converted)
Consider the following compounds and their measured IC50 readings.

Known results for compounds:
[[record]]
record_smiles = "CCc1cc(F)ccc1N1CN(c2ccc(=O)[nH]c2C)C(=O)c2cc(C(F)(F)F)ccc21"
data_value = "≤ 100 nM"

[[record]]
record_smiles = "Cc1cc(F)ccc1N1CN(c2ccc(=O)[nH]c2)C(=O)c2ccc(C#N)cc21"
data_value = "794 to 7940 nM"

[[record]]
record_smiles = "Cc1cc(C#N)ccc1N1CN(c2ccc(=O)[nH]c2C)C(=O)c2ccc(C(F)(F)F)cc21"
data_value = "≤ 100 nM"

[[record]]
record_smiles = "Cc1cc(Cl)ncc1N1CN(c2ccc(F)cc2C)c2ccc(C(F)(F)F)cc2C1=O"
data_value = "794 to 7940 nM"


Then this compound:
I am curious: what IC50 value has been reported for Cc1[nH]c(=O)ccc1N1CN(c2ccc(F)cc2C(C)C)c2ncc(F)cc2C1=O ?
126 to 631 nM
